Test system: Hep G2 cells
procedureDetails: In vitro cytotoxicity assay (EZ-Cytox)
Type: cell-based
assaySetup: Hep G2, 48 h, 500 µM, without DMSO, relative to untreated group, n = 5-6, mean ± S.D.
propertyLabel: cell viability at 500 µM (%)
Respond with the bare value in %.

CC(=O)O[C@@]12CO[C@@H]1C[C@H](O)[C@@]1(C)C(=O)[C@H](O)C3=C(C)[C@@H](OC(=O)[C@H](O)[C@@H](NC(=O)[C@@H](N)Cc4ccccc4)c4ccccc4)C[C@@](O)([C@@H](OC(=O)c4ccccc4)[C@H]21)C3(C)C [PTXm] tested on Hep G2 cells gave cell viability at 500 µM: 40.9

Readout cell viability at 500 µM for CC(=O)O[C@H]1C(=O)[C@@]2(C)[C@H]([C@H](OC(=O)c3ccccc3)[C@]3(O)C[C@H](OC(=O)[C@H](O)[C@@H](NC(=O)c4ccccc4)c4ccccc4)C(C)=C1C3(C)C)[C@]1(OC(C)=O)CO[C@@H]1C[C@@H]2O [PTX, paclitaxel] , test system Hep G2 cells, was 55.5
